# System: L1210
# experiment: Cytotoxicity, inhibition of cell proliferation to 50% of untreated controls
# Type: cell-based
# condition-notes: Mus musculus; L1210 murine leukemia line; read-out: Cytotoxicity as IC50, L1210
observed-property: IC50 (nM)
Value expressed in nM; do not type the unit.

For the compound Nc1nc(F)nc2c1ncn2[C@H]1C[C@H](O)[C@@H](CO)O1 , what IC50 is on record?
900

Param item = Nc1nc(Cl)nc2c1ncn2[C@@H]1O[C@H](CO)[C@@H](O)[C@@H]1F ; retrieve measured IC50.
230

Item Nc1nc(Cl)nc2c1ncn2[C@H]1C[C@H](O)[C@@H](CO)O1 has what recorded IC50?
70

Any idea what IC50 was measured for Nc1nc(Br)nc2c1ncn2[C@@H]1O[C@H](CO)[C@@H](O)[C@@H]1F ?
260

// query IC50 value for entry Nc1nc(Br)nc2c1ncn2[C@H]1C[C@H](O)[C@@H](CO)O1
900

Item Nc1nc(F)nc2c1ncn2[C@@H]1O[C@H](CO)[C@@H](O)[C@@H]1F has what recorded IC50?
380

Which IC50 is listed for Nc1nc(Br)nc2c1ncn2[C@@H]1O[C@H](CO)[C@@H](O)[C@@H]1O ?
3000

###

Kindly state IC50 for each of the entries shown.
# Test system: H.Ep.-2
# experiment: Cytotoxicity, inhibition of cell proliferation to 50% of untreated controls
# Format: cell-based, human
# condition-notes: HEp-2; H.Ep.-2 human cell line; read-out: Cytotoxicity as IC50, H.Ep.-2
Just the number please, in nM, no unit attached.

Reported IC50, compound Nc1nc(Br)nc2c1ncn2[C@@H]1O[C@H](CO)[C@@H](O)[C@@H]1F [compound 3b] : ____
220

Returns the measured IC50 for the input compound. Input: Nc1nc(Br)nc2c1ncn2[C@@H]1O[C@H](CO)[C@@H](O)[C@@H]1O [Y = Br, X = OH]
4000

What does the data say about its IC50? Entry: Nc1nc(Cl)nc2c1ncn2[C@@H]1O[C@H](CO)[C@@H](O)[C@@H]1O [Y = Cl, X = OH]
3000

Given the entry Nc1nc(F)nc2c1ncn2[C@@H]1O[C@H](CO)[C@@H](O)[C@@H]1F [compound 3g] , report its measured IC50.
340

###

Consider the following compounds; for each one, report its metabolised at 500 µM.
# assayed-target: E. coli purine nucleoside phosphorylase (Escherichia coli, UniProt P0ABP8)
# Sequence (P0ABP8 2-239): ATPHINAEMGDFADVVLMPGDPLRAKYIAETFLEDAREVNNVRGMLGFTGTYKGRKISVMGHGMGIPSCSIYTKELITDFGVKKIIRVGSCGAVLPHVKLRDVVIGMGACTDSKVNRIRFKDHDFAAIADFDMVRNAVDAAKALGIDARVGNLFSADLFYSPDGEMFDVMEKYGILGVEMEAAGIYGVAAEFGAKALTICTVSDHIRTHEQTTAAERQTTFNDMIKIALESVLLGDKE
# experiment: Phosphorolysis of nucleosides by purine nucleoside phosphorylase
# Assay type: biochemical
# condition-notes: 0.5 mM nucleoside, 50 mM pH 8.0 phosphate buffer, HPLC, incubation 30-240 min, read-out: % Cleavage

Can you look up the measured metabolised at 500 µM of Nc1nc(F)nc2c1ncn2[C@@H]1O[C@H](CO)[C@@H](O)[C@@H]1O [Y = F, X = OH, 2-fluoro-9-β-D-arabinofuranosyladenine, reference compound] for me?
99%

Could you tell me which metabolised at 500 µM is on file for Nc1nc(F)nc2c1ncn2[C@@H]1O[C@H](CO)[C@@H](O)[C@@H]1F ?
10%

I am curious: what metabolised at 500 µM value has been reported for Nc1nc(F)nc2c1ncn2[C@H]1C[C@H](O)[C@@H](CO)O1 ?
> 99%

Field request: metabolised at 500 µM | item: Nc1nc(Cl)nc2c1ncn2[C@H]1C[C@H](O)[C@@H](CO)O1
> 99%

Which metabolised at 500 µM reading was recorded for the compound Nc1nc(Cl)nc2c1ncn2[C@@H]1O[C@H](CO)[C@@H](O)[C@@H]1F ?
39%

Reported metabolised at 500 µM, compound Nc1nc(Br)nc2c1ncn2[C@@H]1O[C@H](CO)[C@@H](O)[C@@H]1F : ____
45%

###

# Test system: H.Ep.-2
# experiment: Cytotoxicity, inhibition of cell proliferation to 50% of untreated controls
# Format: cell-based, human
# condition-notes: HEp-2; H.Ep.-2 human cell line; read-out: Cytotoxicity as IC50, H.Ep.-2
Record form. Attribute: IC50. Fill in for each entry.
Give just the numeric value; nM need not be written.

Give recorded IC50 with H.Ep.-2 for the following compound: Nc1nc(Br)nc2c1ncn2[C@H]1C[C@H](O)[C@@H](CO)O1 [Y = Br, X = H]
20

So what IC50 did Nc1nc(Cl)nc2c1ncn2[C@H]1C[C@H](O)[C@@H](CO)O1 [Y = Cl, X = H, 2-chloro-2'-deoxyadenosine] get with H.Ep.-2?
30

Please provide the recorded IC50 for Nc1nc(Cl)nc2c1ncn2[C@@H]1O[C@H](CO)[C@@H](O)[C@@H]1F [compound 3d] , tested on H.Ep.-2.
12

GET /values?readout=IC50&system=H.Ep.-2&item= Nc1nc(F)nc2c1ncn2[C@H]1C[C@H](O)[C@@H](CO)O1 [Y = F, X = H, 2-fluoro-2'-deoxyadenosine]
200

###

# Test system: K562
# experiment: Cytotoxicity, inhibition of cell proliferation to 50% of untreated controls
# Format: cell-based, human
# condition-notes: K562 human cell line; read-out: Cytotoxicity as IC50, K562
observed-property: IC50 (nM)
Numeric answer only, unit nM assumed.

Which IC50 value is on record for Nc1nc(Cl)nc2c1ncn2[C@@H]1O[C@H](CO)[C@@H](O)[C@@H]1F ?
3

Need IC50, item Nc1nc(F)nc2c1ncn2[C@@H]1O[C@H](CO)[C@@H](O)[C@@H]1F
300

Look up IC50 for this compound: Nc1nc(Br)nc2c1ncn2[C@@H]1O[C@H](CO)[C@@H](O)[C@@H]1F
50
